These measurements were taken from paper PMC11678237.

# Test system: poly(dA)•2poly(dT) (DNA, polymer) A/T
# Assay Protocol: UV melting, 260 nm
# Test Settings: 150 mM KCl; 10 mM sodium cacodylate, pH 7.0; 10 μM compound, 15 μM base triplet; per base
Test Readout: ΔTm3→2 (°C)
Give your result in °C as a bare value.

Here's what some known entries look like.
CN1CCN(CCCOc2cccc3oc(-c4ccccc4)cc(=O)c23)CC1 ... 25.7
O=c1cc(-c2ccccc2)oc2cccc(OCCCN3CCCC3)c12 ... 19.4
O=c1cc(-c2ccccc2)oc2cccc(OCCCO)c12 ... 5.4
CCN(CC)CCCOc1cccc2oc(-c3ccccc3)cc(=O)c12 ... 24.4

Exercise: Recorded ΔTm3→2 for O=c1cc(-c2ccccc2)oc2cccc(OCCN3CCCCC3)c12 , please?
Key: 22.6

Exercise: Recorded ΔTm3→2 for NCCCOc1cccc2oc(-c3ccccc3)cc(=O)c12 , please?
Key: 23.2
